Parameter: pIC50. Scope: all listed entries.
Target: pseudokinase domain (JH2) of human TYK2 (Homo sapiens)
Construct: The pseudokinase domain (JH2) of human JAK (Janus family of cytoplasmic tyrosine kinases) family tyrosine kinase 2 (TYK2)
Sequence (P29597 589-875 limits assumed): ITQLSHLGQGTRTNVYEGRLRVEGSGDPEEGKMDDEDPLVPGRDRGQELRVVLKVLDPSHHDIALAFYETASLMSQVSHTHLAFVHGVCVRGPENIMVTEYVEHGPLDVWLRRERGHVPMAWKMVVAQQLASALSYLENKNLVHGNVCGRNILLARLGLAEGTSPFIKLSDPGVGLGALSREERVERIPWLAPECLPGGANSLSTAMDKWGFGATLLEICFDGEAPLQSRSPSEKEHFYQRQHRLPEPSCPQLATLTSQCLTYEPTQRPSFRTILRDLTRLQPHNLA
Experiment: TYK2-JH2 Tracer Binding Assay
Conditions: His-tagged TYK2-JH2 0.200 nM, Tracer 2.00 nM, 30 minutes, TR-FRET; n=1
Experimental: The pseudokinase domain (JH2) of human JAK (Janus family of cytoplasmic tyrosine kinases) family tyrosine kinase 2 (TYK2) (Genbank NP_003322) with an N-terminal His6 tag is expressed in baculovirus and purified by HisPur Ni-NTA affinity and Superdex 200 size-exclusion chromatography. […] After 30 minutes, the plate is counted on a PerkinElmer Envision with the following settings: Excitation (340 nm), Tracer Emission (665 nm) and LanthaScreen Eu-anti-His Antibody Emission (615 nm). […]
pIC50: −log10 of the molar value.

compound=CCOc1cccc(Nc2cc(NC)n3ncc(C(=O)N[C@@H]4CCN(C)C4=O)c3n2)n1 result="> 9.60"

// next entry
## Task pseudokinase domain (JH2) of human TYK2 (Homo sapiens) / pIC50 / "CNc1cc(Nc2cc(C)cc(C)n2)nc2c(C(=O)N[C@@H]3CCN(C)C3=O)cnn12" : value?
## Result > 9.60

All values here come from patent US12516063B2.
